Target: KRAS G12V (Homo sapiens (Human), UniProt P01116+P62937, G12V)
Sequence (P01116-2 other isoform, or with tags, fused parts or gaps G12V): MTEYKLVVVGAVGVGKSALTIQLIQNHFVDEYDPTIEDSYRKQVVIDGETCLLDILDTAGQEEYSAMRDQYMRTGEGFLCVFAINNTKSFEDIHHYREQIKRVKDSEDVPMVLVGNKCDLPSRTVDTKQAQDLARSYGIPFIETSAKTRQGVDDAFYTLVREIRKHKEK
Sequence (P62937 whole entry): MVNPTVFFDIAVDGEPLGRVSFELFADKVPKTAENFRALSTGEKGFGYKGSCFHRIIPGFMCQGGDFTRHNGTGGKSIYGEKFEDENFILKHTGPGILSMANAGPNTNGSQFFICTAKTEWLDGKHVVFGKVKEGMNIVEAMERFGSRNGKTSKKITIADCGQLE
Assay: Ras-Raf (BRAF RBD) disruption / FRET / MOA assay, KRAS G12V
Format: biochemical
Settings: read-out: IC50* KRAS G12V FRET data
Some molecules, each annotated with its measured IC50.

Worked examples, 4 molecules total:
**Q:** Look at this molecule and give its reported IC50. CCn1c(-c2ccccc2CCOC)c2c3cc(ccc31)-c1cc(O)cc(c1)C[C@H](NC(=O)[C@H](C(C)C)N(C)C(=O)c1ccc(NC(=O)/C=C/CN(C)C)cc1)C(=O)N1CCC[C@H](N1)C(=O)OCC(C)(C)C2 [Example A225]
**A:** > 10000 nM

**Q:** Which IC50 value is on record for CCn1c(-c2cccnc2[C@H](C)OC)c2c3cc(ccc31)-c1cccc(c1)C[C@H](NC(=O)[C@H](C(C)C)N(C)C(=O)C1(F)CCN(C(=O)C#CC(C)(C)N(C)C)CC1)C(=O)N1CCC[C@H](N1)C(=O)OCC(C)(C)C2 (atropisomer, axis not shown) [Example A699] ?
**A:** 100 to 1000 nM

**Q:** Can you look up the measured IC50 of C=CC(=O)N1C[C@@H]2C[C@H]1CN2C(=O)N(C)[C@H](C(=O)N[C@H]1Cc2nc(cs2)-c2ccc3c(c2)c(c(-c2cccnc2[C@H](C)OC)n3CC)CC(C)(C)COC(=O)[C@@H]2CCCN(N2)C1=O)C(C)C (atropisomer, axis not shown) [Example A409] for me?
**A:** 100 to 1000 nM

**Q:** Which measured IC50 value corresponds to CCn1c(-c2cccnc2[C@H](C)OC)c2c3cc(ccc31)-c1cccc(c1)C[C@H](NC(=O)[C@H](C(C)C)N(C)C(=O)[C@H]1CCN(C(=O)C#CC3(N(C)C)CCOC3)C1)C(=O)N1CCC[C@H](N1)C(=O)OCC(C)(C)C2 (stereo partly shown) [Example A533] ?
**A:** 1000 to 10000 nM

Further cases:
**Q:** Item under review: C=CC(=O)N(C)[C@H]1CCN(C(=O)N(C)[C@H](C(=O)N[C@H]2Cc3nc(cs3)-c3ccc4c(c3)c(c(-c3cccnc3[C@H](C)OC)n4CC)CC(C)(C)COC(=O)[C@@H]3CCCN(N3)C2=O)C(C)C)C1 (atropisomer, axis not shown) [Example A384] . Reported IC50?
**A:** 100 to 1000 nM

**Q:** What IC50 value was documented for this molecule, C=CC(=O)N1CC[C@H](C(=O)N2CCCCC[C@H]2C(=O)N[C@H]2Cc3cccc(c3)-c3ccc4c(c3)c(c(-c3cccnc3[C@H](C)OC)n4CC)CC(C)(C)COC(=O)[C@@H]3CCCN(N3)C2=O)C1 (atropisomer, axis not shown) [Example A496] ?
**A:** > 10000 nM

**Q:** Which value of IC50 has been reported for CCn1c(-c2cccnc2[C@H](C)OC)c2c3cc(ccc31)-c1cc(O)cc(c1)C[C@H](NC(=O)[C@H](C(C)C)N1CCC3(CN(C(=O)/C=C/CN(C)C)C3)C1=O)C(=O)N1CCC[C@H](N1)C(=O)OCC(C)(C)C2 (atropisomer, axis not shown) [Example A270] in the records?
**A:** 100 to 1000 nM

**Q:** Value lookup for IC50; key = C=CC(=O)N1CCC(C(=O)N(C)[C@H](C(=O)N[C@H]2Cc3cc(CF)cc(c3)-c3ccc4c(c3)c(c(-c3cccnc3[C@H](C)OC)n4CC(F)(F)F)CC(C)(C)COC(=O)[C@@H]3CCCN(N3)C2=O)C(C)C)C1 (stereo partly shown) [Example A659]
**A:** 100 to 1000 nM

**Q:** What value of measured IC50 is listed for C=CC(=O)Nc1ccc(C(=O)N(C)[C@H](C(=O)N[C@H]2Cc3cc(O)cc(c3)-c3ccc4c(c3)c(c(-c3cccnc3[C@H](C)OC)n4CC)CC(C)(C)COC(=O)[C@@H]3CCCN(N3)C2=O)C(C)C)cn1 (atropisomer, axis not shown) [Example A336] ?
**A:** 100 to 1000 nM

**Q:** Given CO[C@@H](C)c1ncccc1-c1c2c3cc(ccc3n1CC(F)(F)F)-c1nc(ns1)C[C@H](NC(=O)[C@@H](COC1CN(C(=O)C#CC(C)(C)N(C)C)C1)C(C)C)C(=O)N1CCC[C@H](N1)C(=O)OCC(C)(C)C2 (atropisomer, axis not shown) [Example A590] , state its recorded IC50.
**A:** 1000 to 10000 nM

// data source = patent US11566007B2
